- Test system: Escherichia coli TOP10
- Protocol: shrunken log2 fold change of peptide-encoding DNA abundance (4.5 h post-induction vs induction); higher = less antimicrobial activity (less host growth inhibition)
- Condition Summary: time post-induction: 4.5 h; library: site-saturation at positions 5, 18, 19, 20
Measurement Kind: shrunken log2 fold change
Write the number on its own, no unit after it.

RRIRNRPPRLPRPRPRPDHEPRP    -0.039

Enquiry: Requested read-out: shrunken log2 fold change. Entry: RRIRVRPPRLPRPRPRPWAWPRP
Return: -0.00558

Enquiry: Requested read-out: shrunken log2 fold change. Entry: RRIRIRPPRLPRPRPRPWLLPRP
Return: -0.0948

Enquiry: Requested read-out: shrunken log2 fold change. Entry: RRIRWRPPRLPRPRPRPRPWPRP
Return: 0.289

Enquiry: Requested read-out: shrunken log2 fold change. Entry: RRIRFRPPRLPRPRPRPDINPRP
Return: -0.302

Enquiry: Requested read-out: shrunken log2 fold change. Entry: RRIRLRPPRLPRPRPRPKLFPRP
Return: 0.306

* * *

- System: Escherichia coli TOP10
- Protocol: shrunken log2 fold change of peptide-encoding DNA abundance (4.5 h post-induction vs induction); higher = less antimicrobial activity (less host growth inhibition)
- Condition Summary: time post-induction: 4.5 h; library: site-saturation at positions 5, 18, 19, 20
Measurement Kind: shrunken log2 fold change
Write the number on its own, no unit after it.

RRIRFRPPRLPRPRPRPWPGPRP    0.112
RRIRDRPPRLPRPRPRPMSKPRP    0.101
RRIRARPPRLPRPRPRPAVIPRP    -0.178
RRIRWRPPRLPRPRPRPPTIPRP    -0.0126
RRIRSRPPRLPRPRPRPYWVPRP    -0.314

Enquiry: Requested read-out: shrunken log2 fold change. Entry: RRIRGRPPRLPRPRPRPCEMPRP
Return: 0.852

Enquiry: Requested read-out: shrunken log2 fold change. Entry: RRIRTRPPRLPRPRPRPDRRPRP
Return: 0.0647

Enquiry: Requested read-out: shrunken log2 fold change. Entry: RRIRGRPPRLPRPRPRPLTGPRP
Return: 0.71

Enquiry: Requested read-out: shrunken log2 fold change. Entry: RRIRTRPPRLPRPRPRPVDQPRP
Return: -0.123

Enquiry: Requested read-out: shrunken log2 fold change. Entry: RRIRYRPPRLPRPRPRPMCAPRP
Return: -0.208

* * *

- Test system: Escherichia coli TOP10;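 further: peptides expressed intracellularly from a pBAD plasmid library in pooled LB shake-flask culture, induced with 0.3% L-arabinose, DNA abundance read by NGS, three biological replicates, DESeq2 with apeglm shrinkage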
- Protocol: shrunken log2 fold change of peptide-encoding DNA abundance (4.5 h post-induction vs induction); higher = less antimicrobial activity (less host growth inhibition)
- Condition Summary: time post-induction: 4.5 h; library: site-saturation at positions 5, 18, 19, 20
Measurement Kind: shrunken log2 fold change

RRIRIRPPRLPRPRPRPNPWPRP    -0.119
RRIRSRPPRLPRPRPRPCLNPRP    -0.0696
RRIRIRPPRLPRPRPRPAGIPRP    -0.437
RRIRWRPPRLPRPRPRPVRSPRP    0.239
RRIRARPPRLPRPRPRPKSIPRP    -0.078

Enquiry: Requested read-out: shrunken log2 fold change. Entry: RRIRGRPPRLPRPRPRPHSNPRP
Return: 0.117

Enquiry: Requested read-out: shrunken log2 fold change. Entry: RRIRGRPPRLPRPRPRPNECPRP
Return: 0.421

Enquiry: Requested read-out: shrunken log2 fold change. Entry: RRIRWRPPRLPRPRPRPNDRPRP
Return: 0.174
